Overview of recorded polymerase ribozyme fitness (log ratio) for various variants
B1: TPR t1 (parent)
chain: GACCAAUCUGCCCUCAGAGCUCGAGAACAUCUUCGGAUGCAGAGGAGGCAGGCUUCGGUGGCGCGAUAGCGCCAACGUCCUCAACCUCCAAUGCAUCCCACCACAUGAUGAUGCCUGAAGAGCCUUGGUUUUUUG

Variants of: B1
Assay: polymerase ribozyme fitness, log enrichment relative to wild type (log ratio); higher = more active; in vitro selection for triplet polymerase activity
// response body must contain only the number

[
  {
    "Biosequence": "GACCAAUCUGCCUUCAGAGCUCGAGAACAUCUUCGGAUGCAGAGGUGGCAGGCUUCGGUGGCGCGAUAGCGGCAACGUCCUCAACCUCCAAUGCAUCCCACCACAUGAUGAUGCCUGAAGAACCUUGGUUUUUUG [C13U A46U C72G G122A]",
    "Test value": -1.17
  }
]

Ask: Given the variant GACCAAUCUGCCCGCAGAGCUCGAGAACAUCUUCGGAUGCAGAGCAGGCAGGCUUCGGUGGCGCGAUAGCGCCAACGUCCUCAACCUCCAAUGCAUCCCACCACAUGAUUAUGCCUGAAGAGCCUUGGUUUUUUG [U14G G45C G110U] , what is its reported polymerase ribozyme fitness (log ratio)?
Reply: -3.81

Ask: Given the variant GACCAAUCUGGCCUGAGAGCUCGAGAACAUCUUCGGAUGCAGAGGAGGCAGGCUUCGGUGGCCCGAUUGCGCCAACGUCUUCAACCUCCAAUGCAUCCCACCACAUGAUGAUGCGUGAAGAGCCUUCGUUUUUUC [C11G C15G G63C A68U C80U C115G G127C G135C] , what is its reported polymerase ribozyme fitness (log ratio)?
Reply: -5.08

Where do the numbers come from? From the RNAGym collection of RNA variant scans (doi:10.1073/pnas.2313332121).
